tested on: Nuclear receptor ROR-gamma (Homo sapiens)
test name: qHTS assay to identify small molecule antagonists of the retinoid-related orphan receptor gamma (ROR-gamma) signaling pathway (AID 1159521; further: nearly all actives have a fitted effect of over 50% in size)
experimental conditions: Tet-on RORgamma CHO cells, RORE-luciferase, 16 h; series mostly up to 92.4 µM
Results filed as inconclusive are left out. Active and inactive are the calls of the source. The call rests on the fitted dose curve; in most records, active means well fitted inhibition curve with a large enough effect in the repeat runs; inconclusive means weak or mixed curves, or effect the other way; inactive means no such curve, though single readings can be large or run the other way.
Outcome codes: label 1 for active, label 0 for inactive

[
  {
    "compound": "CC(=O)OCC(=O)[C@@]1(OC(C)=O)[C@@H](C)C[C@H]2[C@@H]3C[C@H](F)C4=CC(=O)C=C[C@]4(C)[C@@]3(F)[C@@H](O)C[C@@]21C",
    "cat": "label 0"
  },
  {
    "compound": "Cc1cccc2sc(N)nc12",
    "cat": "label 0"
  },
  {
    "compound": "O=C(c1ccccc1)c1ccc(O)cc1",
    "cat": "label 0"
  },
  {
    "compound": "CC(C)C(=O)OCCOc1ccccc1",
    "cat": "label 0"
  },
  {
    "compound": "CCN(CC)c1ccc(C(=C2C=CC(=[N+](CC)CC)C=C2)c2ccc(S(=O)(=O)O)cc2S(=O)(=O)[O-])cc1",
    "cat": "label 1"
  },
  {
    "compound": "COc1cc(NCc2ccc3nc(N)nc(N)c3c2C)cc(OC)c1OC",
    "cat": "label 0"
  },
  {
    "compound": "CC(CCc1ccc(O)cc1)NCCc1ccc(O)c(O)c1 (configuration not stated)",
    "cat": "label 0"
  },
  {
    "compound": "Cc1oc(=O)oc1COC(=O)[C@@H]1N2C(=O)[C@@H](NC(=O)[C@H](N)c3ccccc3)[C@H]2SC1(C)C",
    "cat": "label 0"
  },
  {
    "compound": "CC(C(=O)O)c1ccc(C(=O)c2cccs2)cc1 (configuration not stated)",
    "cat": "label 0"
  },
  {
    "compound": "O=C(O)CCS",
    "cat": "label 0"
  },
  {
    "compound": "CCN(Cc1cccc(S(=O)(=O)O)c1)c1ccc(C(=C2C=CC(=[N+](CC)Cc3cccc(S(=O)(=O)O)c3)C=C2)c2ccc(O)cc2S(=O)(=O)[O-])cc1",
    "cat": "label 1"
  },
  {
    "compound": "CO[C@@H]1[C@@H](OC)[C@H](C)[C@@](O)(CC(=O)O)O[C@H]1[C@H](C)[C@H]1O[C@@]2(CC[C@@](C)([C@H]3CC[C@@](C)([C@@H]4O[C@@H]([C@H]5O[C@](C)(O)[C@H](C)C[C@@H]5C)C[C@@H]4OC4C[C@H](OC)[C@@H](OC)[C@H](C)O4)O3)O2)C[C@H](O)[C@H]1C (some centres not stated)",
    "cat": "label 1"
  },
  {
    "compound": "COc1ccc(C)cc1",
    "cat": "label 0"
  },
  {
    "compound": "CC(=O)c1ccc[nH]1",
    "cat": "label 0"
  },
  {
    "compound": "O=C(CCS)OCC(COC(=O)CCS)(COC(=O)CCS)COC(=O)CCS",
    "cat": "label 0"
  },
  {
    "compound": "CC(C)(C)NCC(O)COc1cccc2c1C[C@H](O)[C@H](O)C2 (some centres not stated)",
    "cat": "label 0"
  },
  {
    "compound": "CC(C)(C)C1(CCc2ccc(Cl)cc2)CO1 (configuration not stated)",
    "cat": "label 0"
  },
  {
    "compound": "CCN(CC)CCOC(=O)C(c1ccccc1)c1ccccc1",
    "cat": "label 0"
  },
  {
    "compound": "CCCCCCCC/C=C\\CCCCCCCC(=O)OCCO",
    "cat": "label 0"
  },
  {
    "compound": "CC(=O)C(=O)CC(C)C",
    "cat": "label 0"
  },
  {
    "compound": "CCCCCCCCCCCCCCCCCC(=O)OCC(CC)CCCC (configuration not stated)",
    "cat": "label 0"
  },
  {
    "compound": "O=C1NC(=O)c2cccc3cccc1c23",
    "cat": "label 0"
  }
]
